Tested on: PBMC
Assay: Antiinflammatory activity in human PBMC assessed as inhibition of LPS-induced TNF-alpha production incubated for 30 mins followed by LPS addition measured after 4.5 hrs by ELISA
Type: functional, cell-based
value type: pIC50
Quick note: pIC50 means taking -log10 of the concentration in moles per liter.

Solved entries:
molecule: Cn1c(=O)c2c(c3ccccc31)OC(N)=C(C#N)C2c1cccc(Oc2ccccc2)c1 (centres undefined)
pIC50: 6.70
--
molecule: Cn1c(=O)c2c(c3ccccc31)OC(N)=C(C#N)C2c1cccc(Cl)c1 (centres undefined)
pIC50: 5.74
--
molecule: Cn1c(=O)c2c(c3ccccc31)OC(N)=C(C#N)C2c1cccc([N+](=O)[O-])c1 (centres undefined)
pIC50: 6.70

Now for a further molecule.
-- ask Find the recorded pIC50 belonging to Cn1c(=O)c2c(c3ccccc31)OC(N)=C(C#N)C2c1cccc(Br)c1 (centres undefined) and report it.
-- reply 6.30

Entry source: ChEMBL document CHEMBL4251708
